Ki: recorded values
# assayed.system: UniProt:Q9QZN9
# Sequence (Q9QZN9 whole entry): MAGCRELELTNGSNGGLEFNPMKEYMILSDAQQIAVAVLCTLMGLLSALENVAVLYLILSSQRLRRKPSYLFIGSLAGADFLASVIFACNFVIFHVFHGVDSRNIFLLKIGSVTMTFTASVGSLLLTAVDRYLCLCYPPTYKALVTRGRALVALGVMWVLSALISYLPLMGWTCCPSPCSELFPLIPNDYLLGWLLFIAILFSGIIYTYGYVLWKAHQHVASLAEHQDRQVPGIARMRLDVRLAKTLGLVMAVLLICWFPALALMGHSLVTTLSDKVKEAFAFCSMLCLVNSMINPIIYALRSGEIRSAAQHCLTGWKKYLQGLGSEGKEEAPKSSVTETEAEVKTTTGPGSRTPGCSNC
# assay.protocol: rat CB2 radioligand binding assay ([3H]CP 55,940 competition)
# Set-up: expressed in transfected cells; host or cells: HEK293
# stated.conditions: rat CB2 (Ki, nM), HEK293 membranes, 0.5 nM [3H]CP 55,940
measure: Ki (nM)

>  <smiles>
CN1CCC[C@H]1COc1ccc(C(F)(F)F)cc1C(=O)/N=c1\cc(C(C)(C)C)on1C[C@H]1CCCO1

>  <measure.unit>
nM

>  <obs.value>
46

$$$$
>  <smiles>
Cn1c(C(C)(C)C)c/c(=N\C(=O)c2cc(C(F)(F)F)ccc2OCCN2CCNC2=O)n1C[C@H]1CCCO1

>  <measure.unit>
nM

>  <obs.value>
53

$$$$
>  <smiles>
Cn1c(C(C)(C)C)c/c(=N\C(=O)c2cc(C(F)(F)F)ccc2OCC(C)(C)OCc2ccccc2)n1C[C@H]1CCCO1

>  <measure.unit>
nM

>  <obs.value>
458

$$$$
>  <smiles>
Cn1c(C(C)(C)C)c/c(=N\C(=O)c2cc(C(F)(F)F)cc(Cl)c2OC[C@@H]2CCCO2)n1C[C@H]1CCCO1

>  <measure.unit>
nM

>  <obs.value>
15

$$$$
>  <smiles>
CSCCOc1ccc(C(F)(F)F)cc1C(=O)/N=c1\cc(C(C)(C)C)n(C)n1C[C@H]1CCCO1

>  <measure.unit>
nM

>  <obs.value>
1.9

$$$$
>  <smiles>
Cn1c(C(C)(C)C)c/c(=N\C(=O)c2cc(C(F)(F)F)ccc2OCC(C)(C)O)n1CCC(F)(F)F

>  <measure.unit>
nM

>  <obs.value>
7.6

$$$$

These data points were gathered from patent US8188135B2.
